target: GRK2 (Homo sapiens, UniProt P25098); construct: purchased SignalChem A14-10G; experiment: ADPGlo GRK2 Inhibition Assay (Example 8); type: biochemical; details: ADPGlo GRK2 enzyme assay; read-out: A: Enzymatic GRK2: IC50 (nM) (Example 8)
Sequence (P25098 whole entry): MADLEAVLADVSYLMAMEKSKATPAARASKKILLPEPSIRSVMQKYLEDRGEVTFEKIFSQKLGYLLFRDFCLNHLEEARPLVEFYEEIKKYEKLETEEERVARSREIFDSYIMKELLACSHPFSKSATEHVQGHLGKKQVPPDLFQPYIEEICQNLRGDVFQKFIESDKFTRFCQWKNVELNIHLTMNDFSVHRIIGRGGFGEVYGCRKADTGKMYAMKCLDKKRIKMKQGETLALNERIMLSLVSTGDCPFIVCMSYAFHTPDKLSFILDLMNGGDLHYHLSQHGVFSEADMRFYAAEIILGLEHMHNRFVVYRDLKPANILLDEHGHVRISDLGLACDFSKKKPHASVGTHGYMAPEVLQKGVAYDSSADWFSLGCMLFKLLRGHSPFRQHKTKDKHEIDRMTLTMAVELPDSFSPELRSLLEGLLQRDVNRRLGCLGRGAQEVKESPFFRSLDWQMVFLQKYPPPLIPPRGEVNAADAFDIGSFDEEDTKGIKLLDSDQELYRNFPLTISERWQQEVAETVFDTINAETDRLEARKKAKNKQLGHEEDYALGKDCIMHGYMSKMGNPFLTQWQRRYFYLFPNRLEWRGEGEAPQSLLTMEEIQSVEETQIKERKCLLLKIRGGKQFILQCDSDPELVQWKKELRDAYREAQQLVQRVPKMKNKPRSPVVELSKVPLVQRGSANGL
Mark t for IC50 under 50 nM, f if at or over.

Cn1c(CNc2cccc(C(=O)NCc3ncccc3S(C)(=O)=O)c2)nnc1-c1ccncn1 :: f

In: Dear reviewer, please state whether `CCc1cnccc1CNC(=O)c1cccc(NCc2nnc(-c3ccncc3)n2CCO)c1` has IC50 strictly beneath 50 nM.
Out: t

In: Dear reviewer, please state whether `Cc1cc2c(cc1CNC(=O)c1cccc(NCc3nnc(-c4ccncc4F)n3C)c1)OCCO2` has IC50 strictly beneath 50 nM.
Out: t

In: Dear reviewer, please state whether `Cn1c(CNc2cccc(C(=O)N[C@@H](CCO)c3ccccc3)c2)nnc1-c1ccncc1F` has IC50 strictly beneath 50 nM.
Out: t

In: Dear reviewer, please state whether `COc1cccc([C@@H](C)NC(=O)c2cccc(NCc3nnc(-c4ccncc4)[nH]3)c2)c1` has IC50 strictly beneath 50 nM.
Out: f

In: Dear reviewer, please state whether `Cn1c(CNc2cccc(C(=O)NCc3cccnc3-n3cncn3)c2)nnc1-c1ccncn1` has IC50 strictly beneath 50 nM.
Out: f
